Record form. Attribute: pIC50. Fill in for each entry.
- tested on: Fatty acid synthase (Gallus gallus) (UniProt P12276)
- Sequence (P12276 whole entry, looked up): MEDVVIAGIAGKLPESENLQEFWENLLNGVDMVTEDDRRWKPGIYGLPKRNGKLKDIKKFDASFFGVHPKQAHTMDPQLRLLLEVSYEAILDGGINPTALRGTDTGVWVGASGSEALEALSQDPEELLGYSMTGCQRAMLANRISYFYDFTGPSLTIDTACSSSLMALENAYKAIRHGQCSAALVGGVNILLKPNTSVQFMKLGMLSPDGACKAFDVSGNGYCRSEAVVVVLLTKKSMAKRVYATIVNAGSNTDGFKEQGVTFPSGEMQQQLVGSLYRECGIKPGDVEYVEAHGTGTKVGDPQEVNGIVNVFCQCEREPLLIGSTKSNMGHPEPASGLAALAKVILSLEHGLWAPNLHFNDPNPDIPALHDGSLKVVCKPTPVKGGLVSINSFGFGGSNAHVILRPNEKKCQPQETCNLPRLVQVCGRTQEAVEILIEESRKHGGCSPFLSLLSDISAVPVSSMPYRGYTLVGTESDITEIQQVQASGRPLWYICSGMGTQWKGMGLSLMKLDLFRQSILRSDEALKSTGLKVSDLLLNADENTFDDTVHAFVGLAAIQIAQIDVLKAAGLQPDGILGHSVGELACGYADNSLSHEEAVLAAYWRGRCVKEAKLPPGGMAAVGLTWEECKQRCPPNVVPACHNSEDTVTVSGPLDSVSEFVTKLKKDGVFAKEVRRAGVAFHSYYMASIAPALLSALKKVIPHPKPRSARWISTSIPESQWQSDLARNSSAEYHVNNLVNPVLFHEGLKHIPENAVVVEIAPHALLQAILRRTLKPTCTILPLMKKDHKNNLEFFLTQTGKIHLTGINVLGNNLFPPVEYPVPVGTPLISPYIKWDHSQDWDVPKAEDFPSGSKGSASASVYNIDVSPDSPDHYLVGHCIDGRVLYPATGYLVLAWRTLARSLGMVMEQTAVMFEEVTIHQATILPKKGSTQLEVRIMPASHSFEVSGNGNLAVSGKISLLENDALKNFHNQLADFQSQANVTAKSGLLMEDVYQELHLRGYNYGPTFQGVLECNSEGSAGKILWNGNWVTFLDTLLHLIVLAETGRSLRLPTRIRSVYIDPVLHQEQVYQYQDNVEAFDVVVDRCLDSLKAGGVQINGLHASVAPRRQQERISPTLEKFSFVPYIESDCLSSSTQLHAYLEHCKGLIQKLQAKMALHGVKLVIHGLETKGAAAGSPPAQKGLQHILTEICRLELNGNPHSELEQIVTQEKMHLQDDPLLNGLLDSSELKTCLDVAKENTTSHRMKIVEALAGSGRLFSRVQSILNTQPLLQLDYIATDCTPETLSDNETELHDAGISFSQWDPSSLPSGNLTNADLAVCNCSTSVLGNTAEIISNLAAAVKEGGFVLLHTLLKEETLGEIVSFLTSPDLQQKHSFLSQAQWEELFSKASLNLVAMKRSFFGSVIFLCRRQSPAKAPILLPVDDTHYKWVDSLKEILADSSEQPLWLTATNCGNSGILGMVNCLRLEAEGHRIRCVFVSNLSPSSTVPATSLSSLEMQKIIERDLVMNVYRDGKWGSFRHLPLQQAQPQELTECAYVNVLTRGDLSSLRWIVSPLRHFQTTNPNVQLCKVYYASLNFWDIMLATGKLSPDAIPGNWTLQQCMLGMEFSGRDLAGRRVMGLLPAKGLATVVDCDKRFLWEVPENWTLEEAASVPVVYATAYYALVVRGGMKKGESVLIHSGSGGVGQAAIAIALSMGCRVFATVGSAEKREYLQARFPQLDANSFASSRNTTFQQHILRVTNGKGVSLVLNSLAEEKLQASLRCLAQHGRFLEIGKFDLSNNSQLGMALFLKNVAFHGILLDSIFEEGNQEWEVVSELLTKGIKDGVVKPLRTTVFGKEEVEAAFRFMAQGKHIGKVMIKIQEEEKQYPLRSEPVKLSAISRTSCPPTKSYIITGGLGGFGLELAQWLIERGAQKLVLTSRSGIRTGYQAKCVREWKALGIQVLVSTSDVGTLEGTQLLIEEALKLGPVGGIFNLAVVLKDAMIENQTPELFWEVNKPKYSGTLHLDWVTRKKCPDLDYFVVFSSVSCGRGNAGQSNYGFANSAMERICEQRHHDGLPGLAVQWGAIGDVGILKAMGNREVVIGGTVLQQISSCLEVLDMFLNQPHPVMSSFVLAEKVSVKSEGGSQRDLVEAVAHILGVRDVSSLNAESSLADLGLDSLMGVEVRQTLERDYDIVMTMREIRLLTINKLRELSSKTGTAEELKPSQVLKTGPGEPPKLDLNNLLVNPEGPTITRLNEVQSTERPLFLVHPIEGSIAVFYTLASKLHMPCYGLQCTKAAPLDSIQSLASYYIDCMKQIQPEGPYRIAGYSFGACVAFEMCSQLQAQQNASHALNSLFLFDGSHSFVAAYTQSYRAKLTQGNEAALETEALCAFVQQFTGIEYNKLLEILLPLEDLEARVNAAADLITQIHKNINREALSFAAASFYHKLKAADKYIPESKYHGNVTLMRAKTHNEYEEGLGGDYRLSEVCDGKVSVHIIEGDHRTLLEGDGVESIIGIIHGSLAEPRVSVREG
- assay comment: Inhibition of FAS
pIC50 is defined as minus the log10 of a concentration measured in mol/L.

# returns recorded pIC50 (system: Fatty acid synthase (Gallus gallus) (UniProt P12276)) for "O=C(c1cc(O)cc(O)c1)c1c(O)cc(O)cc1O"
5.07

Lab request: please report pIC50 under test system Fatty acid synthase (Gallus gallus) (UniProt P12276) for "CC(C)=CCc1c(O)cc2oc3cc(O)c(O)c(CC=C(C)C)c3c(=O)c2c1O"
5.91

Please tell me: pIC50 of "C[C@@H]1O[C@@H](O[C@@H]2C(=O)c3c(O)cc(O)cc3O[C@H]2c2cc(O)cc(O)c2)[C@H](O)[C@H](O)[C@H]1O" , system Fatty acid synthase (Gallus gallus) (UniProt P12276)?
4.31

Hi! What's the reported pIC50 for "COc1cc(CCCO)cc2cc(-c3ccc4c(c3)OCO4)oc12" on Fatty acid synthase (Gallus gallus) (UniProt P12276)?
4.04

Please provide the recorded pIC50 for "O=C(c1cccc(O)c1)c1cc(O)c(O)c(O)c1" , tested on Fatty acid synthase (Gallus gallus) (UniProt P12276).
4.83

// fetch Fatty acid synthase (Gallus gallus) (UniProt P12276) pIC50 for O=C(O[C@@H]1Cc2c(O)cc(O)cc2O[C@@H]1c1cc(O)c(O)c(O)c1)c1cc(O)c(O)c(O)c1 [EPIGALOCATECHIN GALLATE]
4.28

Form field - read-out: pIC50; system: Fatty acid synthase (Gallus gallus) (UniProt P12276); submitted item: "O=c1c2cc(O)c(O)cc2oc2cc(O)cc(O)c12"
4.75

All figures here come from ChEMBL document CHEMBL1255179.
